Could you please report measured Emax (fold induction over background), PC3 for the items listed next?
target: CD137 on Jurkat reporter cells (Promega kit CS196005) (UniProt Q07011 24-255, limits assumed); assay: cell-based or functional assay
Sequence (Q07011 24-255 limits assumed): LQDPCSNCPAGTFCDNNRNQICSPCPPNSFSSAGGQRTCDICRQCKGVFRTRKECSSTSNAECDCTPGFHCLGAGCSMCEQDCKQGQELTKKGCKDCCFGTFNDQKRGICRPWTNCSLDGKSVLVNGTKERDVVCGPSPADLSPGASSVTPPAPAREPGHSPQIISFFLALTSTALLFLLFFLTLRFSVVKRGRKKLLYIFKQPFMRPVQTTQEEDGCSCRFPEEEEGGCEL
Starred links: 1 amine or outer side, 2 acyl side, 3 side chain; linkers in the order of their positions; H or OH if unused. Positions of bridges follow the written chain, without caps; N, C: chain ends. Non-standard residues stand in square brackets, D forms with d. Chains are numbered I, II in the order given. No end group written: not given here. *: point of attachment. TATA = O=C(CC[*:1])N1CN(C(=O)CC[*:2])CN(C(=O)CC[*:3])C1; Hyp = O=C(O)[C@@H]1C[C@@H](O)CN1; hArg = N=C(N)NCCCC[C@H](N)C(=O)O; tBuAla = CC(C)(C)C[C@H](N)C(=O)O; Nle = CCCC[C@H](N)C(=O)O; Pent4ynoyl = C#CCCC(=O)*
Answers are plain numbers, in fold over background.

binder	endpointValue
BCY13282 (linker I:3-I:10-I:17, II:1-II:8-II:15 via TATA (inferred); not fully specified (N-terminus, bridges); also: 1:2 complex: two BCY8928 chains on the linker) peptide 1: ADC[Hyp]LVNPLCLEP[dD]WTC peptide 2: Ac-C[tBuAla]PE[dK](Pent4ynoyl)PYCFADPY[Nle]CA	40

Below: the item to evaluate.
Note down Emax (fold induction over background), PC3 recorded for BCY12978 (linker I:4-I:11-I:18, II:1-II:8-II:15 via TATA (inferred); not fully specified (bridges); also: chain 1 N-terminus and chain 2 dLys(PYA) joined through N-(acid-PEG3)-N-bis(PEG3-azide) linker) peptide 1: A[hArg]EC[Hyp]LVNPLCLHP[dE]W[hArg]C peptide 2: Ac-C[tBuAla]PE[dK](Pent4ynoyl)PYCFADPY[Nle]CA
78.1
